Provide the recorded pIC50 for the entries that follow.
Target: Interstitial collagenase (Homo sapiens, UniProt P03956)
Sequence (P03956 whole entry): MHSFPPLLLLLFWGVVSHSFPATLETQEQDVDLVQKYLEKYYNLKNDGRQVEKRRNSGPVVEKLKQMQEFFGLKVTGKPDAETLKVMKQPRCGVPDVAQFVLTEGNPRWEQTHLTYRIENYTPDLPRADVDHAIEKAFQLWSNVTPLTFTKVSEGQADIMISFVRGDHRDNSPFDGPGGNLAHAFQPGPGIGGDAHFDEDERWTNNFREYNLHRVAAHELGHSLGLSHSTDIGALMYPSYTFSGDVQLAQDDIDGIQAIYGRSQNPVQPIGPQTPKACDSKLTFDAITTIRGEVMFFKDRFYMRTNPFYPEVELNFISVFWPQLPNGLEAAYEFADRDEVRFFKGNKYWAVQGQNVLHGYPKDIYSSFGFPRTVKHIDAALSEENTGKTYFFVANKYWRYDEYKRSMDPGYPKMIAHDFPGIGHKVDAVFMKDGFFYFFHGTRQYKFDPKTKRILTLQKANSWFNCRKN
One number for each entry, as −log10 of the molar value.

# pIC50 (compound: `CNC(=O)[C@H](Cc1ccccc1)NC(=O)[C@H](CC(C)C)N[C@@H](CCN1C(=O)c2ccccc2C1=O)P(=O)(O)O` ) is 6.72

Please look at the following compound next.
# pIC50 (compound: CNC(=O)[C@H](Cc1ccccc1)NC(=O)[C@H](CC(C)C)NC(CCCN1C(=O)c2cccc3cccc(c23)C1=O)P(=O)(O)O (some centres not stated) ) is 6.14
